Where do these numbers come from? They come from ChEMBL document CHEMBL4422692.

Measurement target: Cannabinoid receptor 2 (Homo sapiens, UniProt P34972)
Sequence (P34972 whole entry): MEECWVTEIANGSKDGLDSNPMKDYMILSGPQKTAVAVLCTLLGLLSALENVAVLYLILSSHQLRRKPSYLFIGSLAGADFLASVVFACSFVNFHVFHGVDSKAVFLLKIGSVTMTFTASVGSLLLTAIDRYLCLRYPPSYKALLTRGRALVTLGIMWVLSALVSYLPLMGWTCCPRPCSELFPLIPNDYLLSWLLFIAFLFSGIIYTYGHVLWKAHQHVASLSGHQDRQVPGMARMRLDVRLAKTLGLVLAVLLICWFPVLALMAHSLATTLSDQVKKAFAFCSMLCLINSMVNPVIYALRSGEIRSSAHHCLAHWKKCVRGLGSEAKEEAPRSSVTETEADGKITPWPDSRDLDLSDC
Experiment notes: Displacement of [3H]-CP55940 from CB2 receptor (unknown origin)
Each item that follows carries a reported Ki.
Answer as a quantity: numeral, then unit.

Solved cases (2 shown):
Name the reported Ki value associated with the compound O=C(O[C@@H]1Cc2c(O)cc(O)cc2O[C@@H]1c1cc(O)c(O)c(O)c1)c1cc(O)c(O)c(O)c1 [EPIGALOCATECHIN GALLATE] 42.8 µM

Param item: O=C(O[C@@H]1Cc2c(O)cc(O)cc2O[C@@H]1c1ccc(O)c(O)c1)c1cc(O)c(O)c(O)c1 [EPICATECHIN GALLATE] 95.6 µM

New cases:
Name the reported Ki value associated with the compound Oc1cc(O)c2c(c1)O[C@H](c1cc(O)c(O)c(O)c1)[C@H](O)C2 [EPIGALLOCATECHIN] 361 µM
